system tested: Short transient receptor potential channel 4 (Mus musculus) (UniProt Q9QUQ5)
experiment description: calcium flux activators in TRPC4/5HT1a cells, counter-screen for TRPC4 activator project, cell-based, second counter screen, HEK293 TRPC4/5HT1a, Fluo-4 (AID 434977)
condition summary: Fluo-4 calcium flux, at 10 µM
The source made the active and inactive calls.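 How the source made its calls: active means calcium signal rise above buffer-control mean plus 5 SD in both duplicates, and also a hit in the primary screen; inactive means the rest.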
// classify into 1 for active, -1 for inactive

CCC(O)(c1ccc(OC)cc1)C(CN1CCOCC1)c1ccccc1 (configuration not stated)
-1
Fc1ccc(Nc2ncnc3sc4c(c23)CCC4)cc1
-1

Query: recorded result category for CN1CCN(NC(=O)c2cccc(Br)c2)CC1 in this test
-1

Query: recorded result category for CN(C)CCCN(C(=O)c1ccc(S(=O)(=O)N2CCCCCC2)cc1)c1nc2c(F)cc(F)cc2s1 in this test
-1

Query: recorded result category for CC(C)(C)Cc1nc2ccccc2n1CCc1ccccc1 in this test
-1

Query: recorded result category for NS(=O)(=O)c1ccc(CCNCc2cc(Br)ccc2OCc2ccccc2)cc1 in this test
-1

Query: recorded result category for COc1ccc(C(CNC(=O)c2cccc(Br)c2)N2CCCC2)cc1 (configuration not stated) in this test
-1

Query: recorded result category for OC(CNCC1CCCO1)Cn1c2ccc(Br)cc2c2cc(Br)ccc21 (configuration not stated) in this test
-1

Query: recorded result category for CCc1cc2c(SCC(=O)N(C)C3CCS(=O)(=O)C3)ncnc2s1 (configuration not stated) in this test
-1

Query: recorded result category for CNc1oc(-c2ccccc2Cl)nc1P(=O)(c1ccccc1)c1ccccc1 in this test
-1

Query: recorded result category for O=C(CCN1CCc2ccccc2C(O)(c2ccccc2)C1)c1ccc2c(c1)OCCO2 (configuration not stated) in this test
-1

Query: recorded result category for CCN1CCCC1CNC(=O)c1cc2c(OC)cccc2[nH]1 (configuration not stated) in this test
-1

Query: recorded result category for O=C(Cc1ccccc1)Nc1cccc(NC(=O)c2cccs2)c1 in this test
-1

Query: recorded result category for CCOCCCNCc1ccc(OCc2ccccc2Cl)cc1 in this test
-1

Query: recorded result category for CN(C)CCNC(=O)c1scc2c1CCCC2 in this test
1

Query: recorded result category for Cc1n[nH]c(C)c1CCCCOc1ccccc1F in this test
-1

Query: recorded result category for O=C(Cc1cccc2ccccc12)Nc1ccc(Br)cc1C(=O)O in this test
-1

Query: recorded result category for CN1CCN(c2ccc(NC(=O)c3ccc(Br)o3)cc2)CC1 in this test
-1

Query: recorded result category for COc1ccc(C(=O)NNC(=O)CN2CCC(n3nnc4cc(C)ccc43)CC2)cc1 in this test
-1

Query: recorded result category for N#Cc1ccc(OCC(O)CN2CCN(c3ncc(C(F)(F)F)cc3Cl)CC2)cc1 (configuration not stated) in this test
-1

Query: recorded result category for COC(=O)[C@@]12CCCCN1[C@H](c1ccc(-c3ccc(C(C)=O)cc3)cc1)[C@@H]1C(=O)N(C)C(=O)[C@@H]12 in this test
-1

Query: recorded result category for CC(C)CN(C(=O)COC(=O)CCC(=O)c1ccc(Cl)cc1)c1c(N)n(Cc2ccccc2)c(=O)[nH]c1=O in this test
-1
